Biological target: T1, gp140UG37 (subtype A), gp140 envelope glycoprotein from the HIV-1 group M A-clade isolate 92UG037 (HIV-1)
T1 construct: also called UG037 gp140/420 (A); gp140-UG037
Test: SPR
observation type: kon (M⁻¹ s⁻¹)
Please state the figure in M⁻¹ s⁻¹; there is no need to write the unit.

L8Cj3 (VHH, 207 chosen because J3r is said to carry S82aN against L8Cj3; also called L8CjJ3; L9Cj3) VHH: EVQLVESGGGLVQAGGFLRLSCELRGSIFNQYAMAWFRQAPGKEREFVAGMGAVPHYGEFVKGRFTISRDNAKSTVYLQMSSLKPEDTAIYFCARSKSTYISYNSNGYDYWGRGTQVTVSS ... 7800

Please find the next binder below.
Which measured kon value corresponds to L91F10 (VHH, Purified by IMAC; tags not written into the chain) VHH: EVQLVESGGGLVQPGGSLTLSCVASGFTLDGYAIGWFRQAPGKEVESVSCITGRHGTIYYADSVMGRFTISRDNAKSTVYLQMNSLKPEDTAVYYCAADGFDTPCVAGTDWQYDYWGQGTQVTVSS ?
29300
